Kindly supply the reported koff values for the records listed here.
- system-under-test: huCD28 (human, UniProt P10747 19-152, limits assumed)
- experiment-summary: SPR, OAA format
One number for each entry, in s⁻¹.

v37858 (antibody, V domains shown, OAA format as v34891; also called huTN228 L1112AA (VH) OAA) VH: QVQLQESGPGLVKPSETLSLTCAVSGFSLTSYGVHWIRQPPGKGLEWLGVIWPGGGTNFNSALMSRLTISEDTSKNQVSLKLSSVTAADTAVYYCARDRAYGNYAYAMDYWGQGTLVTVSS VL: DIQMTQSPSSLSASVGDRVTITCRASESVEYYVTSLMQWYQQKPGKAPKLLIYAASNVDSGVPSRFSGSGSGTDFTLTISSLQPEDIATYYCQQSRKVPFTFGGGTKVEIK :: 0.0221

**Query** Entry v37878 (antibody, V domains shown, OAA format as v34891; also called huTN228 K1109A (VL) OAA) VH: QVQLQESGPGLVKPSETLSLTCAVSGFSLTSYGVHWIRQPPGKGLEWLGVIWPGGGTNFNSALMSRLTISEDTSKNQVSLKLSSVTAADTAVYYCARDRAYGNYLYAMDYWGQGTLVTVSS VL: DIQMTQSPSSLSASVGDRVTITCRASESVEYYVTSLMQWYQQKPGKAPKLLIYAASNVDSGVPSRFSGSGSGTDFTLTISSLQPEDIATYYCQQSRAVPFTFGGGTKVEIK : reported koff = ?
**Result** 0.0117
